Protocol: folding enthalpy; higher = less favourable; fluorescence melt of hairpins on a sequencing array, two-state fit
Condition Context: sodium 0.088 M
Assay Metric: folding enthalpy (kcal/mol)
Respond with the bare value in kcal/mol.

Here's what some known entries look like.
- Chain: "GATGTACGAAAGTAATC (((.(((....))))))"
  Assay Metric: "folding enthalpy"
  Reading Unit: "kcal/mol"
  Endpoint Result: -21.1
- Chain: "GACTGAGCGAAAGCTGTC (((..(((....))))))"
  Assay Metric: "folding enthalpy"
  Reading Unit: "kcal/mol"
  Endpoint Result: -12.7
- Chain: "GCGTTTGGAAACAAGTGC ((..(((....)))..))"
  Assay Metric: "folding enthalpy"
  Reading Unit: "kcal/mol"
  Endpoint Result: -15.8
- Chain: "GCGAGGCGAAAGCGACGC (((..((....))..)))"
  Assay Metric: "folding enthalpy"
  Reading Unit: "kcal/mol"
  Endpoint Result: -25.4
- Chain: "GGTTCCCGAAAGGGTACC (((.(((....))).)))"
  Assay Metric: "folding enthalpy"
  Reading Unit: "kcal/mol"
  Endpoint Result: -33.6
- Chain: "GATCATTGCAATGATC ((((((....))))))"
  Assay Metric: "folding enthalpy"
  Reading Unit: "kcal/mol"
  Endpoint Result: -44.8

Now examine the next entry.
[in] Specify measured folding enthalpy for GGGTGGGAAACCACCC ((((((....)))))) .
[out] -29.6

---

Protocol: melting temperature; fluorescence melt of hairpins on a sequencing array, two-state fit, raised by 9.35 °C to match UV melts
Condition Context: sodium 0.088 M
Criterion met means recorded Tm is 30 °C or above; Criterion not met means it is below 30 °C.

- Chain: "GATCAGTAACTGATC ((((((...))))))"
  Category Label: "Criterion met"
- Chain: "CGAGTCGGAAACGAGTCG (((.(((....))).)))"
  Category Label: "Criterion met"
- Chain: "GATCAGCAATCTGATC ((((((....))))))"
  Category Label: "Criterion met"
- Chain: "GACCGTCCGAAAGGAGTC (((..(((....))))))"
  Category Label: "Criterion not met"
- Chain: "GGCATCGAAAGATTAGCC ((((((....)))..)))"
  Category Label: "Criterion met"

Pending sequence:
[in] Has GTACGTGCGAAAGCATAC (((..(((....)))))) a recorded Tm greater than or equal to 30 °C?
[out] Criterion not met

---

Protocol: folding enthalpy; higher = less favourable; fluorescence melt of hairpins on a sequencing array, two-state fit
Condition Context: sodium 0.088 M
Assay Metric: folding enthalpy (kcal/mol)
The reply should be a number in kcal/mol, with the unit left off.

Here's what some known entries look like.
- Chain: "GGGACGGCGAAAGCCCCC (((..(((....))))))"
  Reading Unit: "kcal/mol"
  folding enthalpy: -14.8
- Chain: "CGCATGCGGAAACGCGCG (((..(((....))))))"
  Reading Unit: "kcal/mol"
  folding enthalpy: -20.8
- Chain: "GGGTGGCGAAAGCCCCC (((.(((....))))))"
  Reading Unit: "kcal/mol"
  folding enthalpy: -17.3
- Chain: "GCAGCCGAAAGGCACTGC ((((((....)))..)))"
  Reading Unit: "kcal/mol"
  folding enthalpy: -13.7

[in] Let me know recorded folding enthalpy for CGTAGCGGAAACGCCACG (((.(((....))).))) , thanks.
[out] -32

[in] Indicate the recorded folding enthalpy value for this sequence: GATCTGCGAAAGCAAATC (((.(((....))).)))
[out] -18.4

[in] Please look at this sequence and report its folding enthalpy: GTATTTCGAAAGAATAC (((.(((....))))))
[out] -14.1

[in] Quote folding enthalpy reported for GATCCCACGAGGGATC ((((((....)))))) please.
[out] -34.5

[in] Check the records and state folding enthalpy for GCCTTAACGAAAGTTGGC (((..(((....))))))
[out] -26.5
